- Test system: peripheral acetylcholine-like effects
- assay-text: Side effect profile: in vivo overt effects (salivation, tremor, diarrhea) after oral administration
- Set-up: species or system rat
- reported-conditions: (rat) po
The following molecules are listed with their measured Side Effect Profile minimum effective dose (MED) values.
Express your answer in μ mol/kg, writing the number without its unit.

Take a look at these entries with their results.
- chemical-smiles: "CCCCCCCCCC(=O)O[C@H]1CCN(CC#CCN2CCCC2)C1=O"
  reported-value: 14
- chemical-smiles: "CCCCCC(=O)O[C@@H]1CCN(CC#CCN(C)C)C1=O"
  reported-value: 255
- chemical-smiles: "CCCCCCCC(=O)O[C@H]1CCN(CC#CCN2CCCC2)C1=O"
  reported-value: 14
- chemical-smiles: "CCCC(=O)O[C@H]1CCN(CC#CCN(C)C)C1=O"
  reported-value: 8.0
- chemical-smiles: "CCCC(=O)O[C@@H]1CCN(CC#CCN(C)C)C1=O"
  reported-value: 127

Dear colleague, I am looking for the recorded Side Effect Profile minimum effective dose (MED) of the following molecule: CCCCCCCC(=O)O[C@@H]1CCN(CC#CCN2CCCC2)C1=O
14

---

- measured-target: muscarinic cholinergic receptor
- assay-text: [^3 H]-Cis-methyldioxolane (^3 H-CD) Binding Assay (High Affinity)
- reported-conditions: rat cerebral cortex, ^3 H-CD 1.0 nM, 25° C., 120 minutes, pH 7.4; high affinity agonist binding
// boundary case: Ki equal to 2000 nM maps to no (0); strictly smaller maps to yes (1)

// known answers, use as guide
- molecule: "CCCCCCCCOC(=O)O[C@H]1CCN(CC#CC[N+](C)(C)C)C1=O"
  category: "yes (1)"
- molecule: "CC(=O)O[C@H]1CCN(CC#CCN(C)CCCCO)C1=O"
  category: "no (0)"
- molecule: "CCCCCCCCNC(=O)O[C@H]1CC(=O)N(CC#CCN2CCCC2)C1"
  category: "yes (1)"
- molecule: "CC(=O)O[C@H]1CCN(CC#CCN2CCC[C@@H]2CO[Si](C)(C)C(C)(C)C)C1=O"
  category: "no (0)"
- molecule: "CCCCCCCCCC(=O)O[C@H]1CCN(CC#CCN(C)C)C1=O"
  category: "yes (1)"
- molecule: "CS[C@@H]1CCN(CC#CCN2CCCC2)C1=O"
  category: "yes (1)"
- molecule: "CC(C)(C)[Si](C)(C)O[C@H]1CCN(CC#CCn2ccnc2)C1=O"
  category: "no (0)"
- molecule: "CCCCCCCCOC(=O)O[C@@H]1CCN(CC#CCN2CCCC2)C1=O"
  category: "yes (1)"
- molecule: "[N-]=[N+]=N[C@H]1CCN(CC#CCN2CCCC2)C1=O"
  category: "yes (1)"
- molecule: "CC1CCN(CC#CCN2CCCC2CO[Si](C)(C)C(C)(C)C)C1=O (stereo not shown)"
  category: "no (0)"

A record lists CCCCCCCCOC(=O)O[C@H]1CCN(CC#CCN(C)C)C1=O . Is its Ki below 2000 nM?
yes (1)

Answer whether the molecule CN(C)CC#CCN1CC[C@@H](O)C1=O has Ki strictly less than 2000 nM
yes (1)

Strictly below 2000 nM in Ki? CN(C)C(=O)O[C@H]1CCN(CC#CCN2CCCC2)C1=O
no (0)

---

Side Effect Profile minimum effective dose (MED) values by entry
- Tested on: peripheral acetylcholine-like effects
- assay-text: Side effect profile: in vivo overt effects (salivation, tremor, diarrhea) after oral administration
- Parameters: species or system rat
- reported-conditions: (rat) po

Take a look at these entries with their results.
- chemical-smiles: "CCCCOC(=O)O[C@H]1CCN(CC#CCN2CCCC2)C1=O"
  reported-value: "0.9 μ mol/kg"
- chemical-smiles: "CCCCCCOC(=O)O[C@@H]1CCN(CC#CCN2CCCC2)C1=O"
  reported-value: "7 μ mol/kg"
- chemical-smiles: "CCCCCCCCNC(=O)O[C@H]1CCN(CC#CCN(C)C)C1=O"
  reported-value: "> 520 μ mol/kg"
- chemical-smiles: "CCNC(=O)O[C@H]1CCN(CC#CCN(C)C)C1=O"
  reported-value: "> 510 μ mol/kg"
- chemical-smiles: "CCNC(=O)O[C@@H]1CCN(CC#CCN2CCCC2)C1=O"
  reported-value: "28 μ mol/kg"

Consider the additional compound presented here.
Under peripheral acetylcholine-like effects: Side Effect Profile minimum effective dose (MED) value of CCCCCCNC(=O)O[C@@H]1CCN(CC#CCN(C)C)C1=O ?
> 530 μ mol/kg

---

- Test system: peripheral acetylcholine-like effects
- assay-text: Side effect profile: in vivo overt effects (salivation, tremor, diarrhea) after oral administration
- Set-up: species or system rat
- reported-conditions: (rat) po
Each entry below lists one item and its recorded Side Effect Profile minimum effective dose (MED) value.
Write the value in μ mol/kg as a bare number.

Look over these answered cases.
- chemical-smiles: "CCCCCCCC(=O)O[C@@H]1CCN(CC#CCN(C)C)C1=O"
  reported-value: 508
- chemical-smiles: "CCOC(=O)O[C@H]1CCN(CC#CCN2CCCC2)C1=O"
  reported-value: 1.7

Any idea what Side Effect Profile minimum effective dose (MED) was measured for CCCC(=O)O[C@H]1CCN(CC#CCN2CCCC2)C1=O ?
1.7

---

- measured-target: muscarinic cholinergic receptor
- Type: binding, rat
- reported-conditions: rat cerebral cortex, ^3 H-QNB 0.25 nM, 25° C., 120 minutes, pH 7.4
pKi: −log10 of the molar value. Counter-ions that a name gives are not always drawn.
Records here are stratified by pKi; strata: low value: < 5; medium value: ≥ 5 and < 6; high value: ≥ 6

Look over these answered cases.
- molecule: "CC(C)(C)C(=O)O[C@H]1CCN(CC#CC[N+](C)(C)C)C1=O"
  category: "low value"
- molecule: "CN(CC#CCN1CC[C@H](O)C1=O)CCCCO"
  category: "low value"
- molecule: "CCCCCCCCNC(=O)O[C@@H]1CCN(CC#CCN(C)C)C1=O"
  category: "low value"
- molecule: "NCC#CCN1CCCC1 [dihydrochloride]"
  category: "low value"
- molecule: "[N-]=[N+]=N[C@@H]1CCN(CC#CCN2CCCC2)C1=O"
  category: "low value"
- molecule: "CC(C)(C)[Si](C)(C)O[C@@H]1CCN(CC#CCN2CCC2)C1=O"
  category: "low value"

Note: place this molecule into its band. Item: CC(C)C(=O)O[C@H]1CCN(CC#CCN(C)C)C1=O
low value

Just checking, what class would you give O=C1[C@@H](O)CCN1CC#CCN1CCCC1 here?
medium value

Category lookup for the molecule CC(C)C(=O)O[C@@H]1CCN(CC#CCN2CCCC2)C1=O
low value

---

- measured-target: muscarinic cholinergic receptor
- assay-text: [^3 H]-Cis-methyldioxolane (^3 H-CD) Binding Assay (High Affinity)
- reported-conditions: rat cerebral cortex, ^3 H-CD 1.0 nM, 25° C., 120 minutes, pH 7.4; high affinity agonist binding
Structures can show the parent of a compound that is named as a salt.
measured-endpoint: pKi
The scale used: pKi is minus the common logarithm of the concentration in molar units.

Check out these entries, answers already filled in.
- compound: "O=C(OCc1ccccc1)O[C@@H]1CCN(CC#CCN2CCCC2)C1=O"
  pKi: 6.96
- compound: "CC(C)C(=O)O[C@@H]1CCN(CC#CCN2CCCC2)C1=O"
  pKi: 6.87
- compound: "NCC#CCN1CCCC1 [dihydrochloride]"
  pKi: 4.89
- compound: "C[N+](C)(C)CC#CCN1CC[C@H](N=[N+]=[N-])C1=O"
  pKi: 7.35
- compound: "CC(C)C(=O)O[C@H]1CCN(CC#CCN2CCCC2)C1=O"
  pKi: 6.79
- compound: "CN(C)CC#CCN1CC[C@H](OC(=O)C(C)(C)C)C1=O"
  pKi: 4.41
- compound: "O=C1[C@@H](O)CCN1CC#CCN1CCC[C@H]1CO"
  pKi: 4.46
- compound: "CC(C)(C)[Si](C)(C)OC[C@H]1CCCN1CC#CCN1CC[C@@H](O)C1=O"
  pKi: 5.38

Item under review: CN(CC#CCN1CC[C@H](O)C1=O)CCCCO . Reported pKi?
5.89

Query: pKi; subject: CC1CCN(CC#CCn2ccnc2)C1=O (racemic) [Racemic 1-[4-(1H-imidazol-1-yl)-2-butynyl]-3-methyl-2-pyrrolidinone]
7.24

Which pKi reading was recorded for the compound CCCCCCCCCC(=O)O[C@@H]1CCN(CC#CCN2CCCC2)C1=O ?
7.01

// lookup pKi for CC(C)(C)[Si](C)(C)OC[C@@H]1CCCN1CC#CCNC(=O)C(F)(F)F
4.38

---

- Tested on: peripheral acetylcholine-like effects
- assay-text: Side effect profile: in vivo overt effects (salivation, tremor, diarrhea) after oral administration
- Set-up: species or system rat
- reported-conditions: (rat) po
- Excerpt: The use of the radioligand binding assays (^3 H-QNB and ^3 H-CD) to characterize the hydroxylated oxotremorine derivatives provides a useful first approximation for,the evaluation of the muscarinic agonist-like profile of a test compound. However, in using a prodrug methodology, intrinsic activity will not be observed until in vivo hydrolysis or metabolism to the active compound occurs. […]
Note to self: Side Effect Profile minimum effective dose (MED) under 7 μ mol/kg means true, ties and anything higher get false.

Before answering, review these 5 worked examples.
- chemical-smiles: "CCCCCCCCOC(=O)O[C@H]1CCN(CC#CCN2CCCC2)C1=O"
  measured-target: "peripheral acetylcholine-like effects"
  category: "false"
- chemical-smiles: "CCOC(=O)O[C@H]1CCN(CC#CCN(C)C)C1=O"
  measured-target: "peripheral acetylcholine-like effects"
  category: "true"
- chemical-smiles: "CCCCCC(=O)O[C@H]1CCN(CC#CCN(C)C)C1=O"
  measured-target: "peripheral acetylcholine-like effects"
  category: "true"
- chemical-smiles: "CCCCNC(=O)O[C@H]1CCN(CC#CCN(C)C)C1=O"
  measured-target: "peripheral acetylcholine-like effects"
  category: "false"
- chemical-smiles: "CCCCCC(=O)O[C@H]1CCN(CC#CCN2CCCC2)C1=O"
  measured-target: "peripheral acetylcholine-like effects"
  category: "true"

Side Effect Profile minimum effective dose (MED) strictly < 7 μ mol/kg for this compound? CCCCNC(=O)O[C@H]1CCN(CC#CCN2CCCC2)C1=O
false

Strictly below 7 μ mol/kg in Side Effect Profile minimum effective dose (MED)? CCCCCCCC(=O)O[C@H]1CCN(CC#CCN(C)C)C1=O
false

Origin of measurements: patent US5637731A
